# Tested on: SK-MEL-28
# protocol_details: NCI60 growth inhibition, SK-MEL-28
# Type: cell-based
# experimental_parameters: Melanoma

compound	Growth inhibition (% control) GIPRCNT
Cc1ccc2c(n1)C(=O)C(Cl)=C(Nc1ccc(N3CCN(C)CC3)cc1)C2=O [Compound 13]	30.32
CN1CCN(c2cc(F)c(NC3=C(Cl)C(=O)c4ncccc4C3=O)c(F)c2)CC1 [Compound 1]	−55.0718
CN1CCN(c2ccc3nc4c(nc3c2C(F)(F)F)C(=O)c2ncccc2C4=O)CC1 [Compound 50]	5.495
O=C1c2cccnc2C(=O)c2nc3cc(N4CCN(C5CC5)CC4)ccc3nc21 [Compound 49]	−76.8851

----------
# System: U251
# protocol_details: NCI60 growth inhibition, U251
# Assay type: cell-based
# experimental_parameters: CNS Cancer

smiles_string	tested_system	unit_symbol	Growth inhibition (% control) GIPRCNT
CN1CCN(c2cc(F)c(NC3=C(Cl)C(=O)c4ncccc4C3=O)c(F)c2)CC1	U251	% control	−9.877
CN1CCN(c2ccc3nc4c(nc3c2C(F)(F)F)C(=O)c2ncccc2C4=O)CC1	U251	% control	0.9108
O=C1c2cccnc2C(=O)c2nc3cc(N4CCN(C5CC5)CC4)ccc3nc21	U251	% control	−32.64
Cc1ccc2c(n1)C(=O)C(Cl)=C(Nc1ccc(N3CCN(C)CC3)cc1)C2=O	U251	% control	8.466

----------
# System: CAKI-1
# protocol_details: NCI60 growth inhibition, CAKI-1; further: test concentration or dose not given here
# Type: cell-based
# experimental_parameters: Renal Cancer

molecule	unit_symbol	Growth inhibition (% control) GIPRCNT
O=C1c2cccnc2C(=O)c2nc3cc(N4CCN(C5CC5)CC4)ccc3nc21 [Compound 49]	% control	−5.268
Cc1ccc2c(n1)C(=O)C(Cl)=C(Nc1ccc(N3CCN(C)CC3)cc1)C2=O [Compound 13]	% control	−100
CN1CCN(c2ccc3nc4c(nc3c2C(F)(F)F)C(=O)c2ncccc2C4=O)CC1 [Compound 50]	% control	33.14
CN1CCN(c2cc(F)c(NC3=C(Cl)C(=O)c4ncccc4C3=O)c(F)c2)CC1 [Compound 1]	% control	−85.6094

----------
Readings of Growth inhibition (% control) GIPRCNT for the listed compounds
# Test system: HT29
# protocol_details: NCI60 growth inhibition, HT29
# Assay type: cell-based
# experimental_parameters: Colon Cancer

smiles_string	unit_symbol	Growth inhibition (% control) GIPRCNT
Cc1ccc2c(n1)C(=O)C(Cl)=C(Nc1ccc(N3CCN(C)CC3)cc1)C2=O	% control	66.44
O=C1c2cccnc2C(=O)c2nc3cc(N4CCN(C5CC5)CC4)ccc3nc21	% control	−21.31
CN1CCN(c2ccc3nc4c(nc3c2C(F)(F)F)C(=O)c2ncccc2C4=O)CC1	% control	−55.5144
CN1CCN(c2cc(F)c(NC3=C(Cl)C(=O)c4ncccc4C3=O)c(F)c2)CC1	% control	11.1525

----------
# Test system: SNB-75
# protocol_details: NCI60 growth inhibition, SNB-75; further: test concentration or dose not given here
# Format: cell-based
# experimental_parameters: CNS Cancer

smiles_string	tested_system	Growth inhibition (% control) GIPRCNT
O=C1c2cccnc2C(=O)c2nc3cc(N4CCN(C5CC5)CC4)ccc3nc21	SNB-75	−64.69
CN1CCN(c2ccc3nc4c(nc3c2C(F)(F)F)C(=O)c2ncccc2C4=O)CC1	SNB-75	5.296
Cc1ccc2c(n1)C(=O)C(Cl)=C(Nc1ccc(N3CCN(C)CC3)cc1)C2=O	SNB-75	−53.8363
CN1CCN(c2cc(F)c(NC3=C(Cl)C(=O)c4ncccc4C3=O)c(F)c2)CC1	SNB-75	38.01
